From: patent US4001418A

- protocolText: oral LD50 in mice
- assayContext: mouse, in vivo

| testSmiles | LD50 |
| --- | --- |
| CN1CCC2(CC1)c1ccccc1Sc1c(O)cccc12 | > 500 mg/kg |

###

- protocolText: intravenous LD50
- assayContext: mouse, in vivo, mice, read-out: intravenous LD50

| testSmiles | LD50 [mg/kg] |
| --- | --- |
| CN1CCC2(CC1)c1ccccc1Sc1c(O)cccc12 | 30 |

###

- protocolText: intravenous LD50
- assayContext: mouse, in vivo, table 1, read-out: LD50
readoutLabel: LD50

| testSmiles | reportedMeasurement |
| --- | --- |
| CCCN1CCC2(CC1)c1ccccc1Sc1c(O)cccc12 | 35 mg/kg |
| CC(=O)Oc1cccc2c1Sc1cc(Cl)ccc1C21CCN(C)CC1 | > 50 mg/kg |
| C=CCN1CCC2(CC1)c1ccccc1Sc1c(O)cccc12 | 43 mg/kg |
